Values were extracted from ChEMBL document CHEMBL5154644.

Reported IC50 is given for each of the following molecules.
Biological target: Phosphatidylinositol 4,5-bisphosphate 3-kinase catalytic subunit beta isoform (Homo sapiens)
Sequence (P42338 whole entry, canonical isoform): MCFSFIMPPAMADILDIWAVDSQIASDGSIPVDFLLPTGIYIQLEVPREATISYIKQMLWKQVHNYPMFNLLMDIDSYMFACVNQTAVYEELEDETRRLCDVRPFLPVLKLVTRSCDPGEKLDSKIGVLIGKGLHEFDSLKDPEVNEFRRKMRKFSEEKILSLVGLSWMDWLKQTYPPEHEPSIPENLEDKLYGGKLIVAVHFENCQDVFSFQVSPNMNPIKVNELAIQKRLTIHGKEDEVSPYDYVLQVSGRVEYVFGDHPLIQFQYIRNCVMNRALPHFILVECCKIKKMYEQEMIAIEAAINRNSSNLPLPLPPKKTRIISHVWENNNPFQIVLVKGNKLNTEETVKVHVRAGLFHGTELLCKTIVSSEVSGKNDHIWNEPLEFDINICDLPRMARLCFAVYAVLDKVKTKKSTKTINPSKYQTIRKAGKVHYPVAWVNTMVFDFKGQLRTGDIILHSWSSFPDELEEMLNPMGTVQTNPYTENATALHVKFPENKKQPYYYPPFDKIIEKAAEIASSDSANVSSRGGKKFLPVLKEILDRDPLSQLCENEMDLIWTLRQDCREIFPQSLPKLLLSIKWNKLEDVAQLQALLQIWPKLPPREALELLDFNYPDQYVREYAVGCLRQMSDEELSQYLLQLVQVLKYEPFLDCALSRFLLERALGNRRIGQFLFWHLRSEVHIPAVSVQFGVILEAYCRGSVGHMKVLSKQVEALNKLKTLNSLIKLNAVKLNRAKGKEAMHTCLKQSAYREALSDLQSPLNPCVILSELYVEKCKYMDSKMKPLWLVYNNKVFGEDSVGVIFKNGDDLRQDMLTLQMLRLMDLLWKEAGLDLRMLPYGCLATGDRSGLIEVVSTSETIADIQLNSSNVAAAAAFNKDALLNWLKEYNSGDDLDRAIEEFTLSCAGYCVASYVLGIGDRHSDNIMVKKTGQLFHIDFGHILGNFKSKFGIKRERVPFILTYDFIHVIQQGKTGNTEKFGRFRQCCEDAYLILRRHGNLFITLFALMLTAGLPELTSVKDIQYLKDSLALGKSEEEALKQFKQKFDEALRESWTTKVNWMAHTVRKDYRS
Assay: Inhibition of PI3Kbeta (unknown origin) using PIP2 as substrate preincubated for 1 hr followed by substrate addition and measured after 60 mins in presence of ATP by ADP-glo assay
Record the result as a number with its unit.

Take a look at these entries with their results.
given.smiles	assay.value
C[C@@H](C1CC1)N1Cc2cc(-c3ccn4nc(N)c(C(=O)N[C@H]5CC[C@](C)(O)CC5)c4n3)cc(NS(C)(=O)=O)c2C1=O	7.57 µM
C[C@@H](C1CC1)N1Cc2cc(-c3ccn4nc(N)c(C(=O)N[C@H]5CC[C@@](C)(O)CC5)c4n3)cc(OC(F)(F)F)c2C1=O	29.3 µM
C[C@@H](C1CC1)N1Cc2cc(-c3ccn4nc(N)c(C(=O)N[C@H]5CC[C@](O)(C(F)(F)F)CC5)c4n3)cc(NS(C)(=O)=O)c2C1=O	9.78 µM
C[C@@H](C1CC1)N1Cc2cc(-c3ccn4nc(N)c(C(=O)N[C@@H](CO)C5CC5)c4n3)cc(OC(F)F)c2C1=O	29.4 µM
C[C@@H](C1CC1)N1Cc2cc(-c3ccn4nc(N)c(C(=O)N[C@H]5CC[C@@](C)(O)CC5)c4n3)cc(OC(F)F)c2C1=O	9.21 µM

Kindly review the next molecule as well.
Form field IC50, entry "C[C@@H](C1CC1)N1Cc2cc(-c3ccn4nc(N)c(C(=O)N[C@@H](CO)C5CC5)c4n3)cc(OC(F)(F)F)c2C1=O" : 8.55 µM

----------
Test: Metabolic stability in human hepatocytes assessed as intrinsic clearance per 10^6 cells at 0.5 uM by LC-MS/MS analysis
Format: ADME, cell-based, Hepatocyte
Settings: read-out: CLH
So basically: is hepatocyte CLint at 0.5 µM under 4 µL/min/1e6 cells? Then T. Not under? Then F.

given.smiles	label
C[C@@H](C1CC1)N1Cc2cc(-c3ccn4nc(N)c(C(=O)NC5CC5)c4n3)cc(OC(F)F)c2C1=O	F
Cc1cc(-c2ccn3nc(N)c(C(=O)N[C@@H]4CC[C@@H](O)C4)c3n2)cc2c1C(=O)N([C@@H](C)C1CC1)C2	T
CS(=O)(=O)Nc1cc(-c2ccn3nc(N)c(C(=O)NC4CC4)c3n2)cc2c1C(=O)N([C@@H](C1CC1)C(F)(F)F)C2	T
C[C@@H](C1CC1)N1Cc2cc(-c3ccn4nc(N)c(C(=O)N[C@H]5CC[C@@](C)(O)CC5)c4n3)cc(OC(F)(F)F)c2C1=O	T
Cc1cc(-c2ccn3ncc(C(=O)Nc4cnn(C)c4)c3n2)cc2c1C(=O)N([C@@H](C)C1CC1)C2	F

Attention now shifts to the item below.
Request: Problem: For the molecule "C[C@@H](C1CC1)N1Cc2cc(-c3ccn4nc(N)c(C(=O)NC5CC5)c4n3)cc(OC(F)(F)F)c2C1=O" , is hepatocyte CLint at 0.5 µM under 4 µL/min/1e6 cells?
Response: T

----------
Reported clearance is given for each of the following molecules.
Test: Clearance in cynomolgus monkey at 1 mg/kg, iv
Assay type: ADME, organism-based, Macaca fascicularis
Conditions: in vivo
Express the result in mL/min/kg but write the number alone.

given.smiles	unit.annotation	clearance
C[C@@H](C1CC1)N1Cc2cc(-c3ccn4nc(N)c(C(=O)N[C@H]5CC[C@@](C)(O)CC5)c4n3)cc(OC(F)F)c2C1=O	mL/min/kg	18

Form field clearance, entry "C[C@@H](C1CC1)N1Cc2cc(-c3ccn4nc(N)c(C(=O)N[C@H]5CC[C@@](C)(O)CC5)c4n3)cc(OC(F)(F)F)c2C1=O" : 17.7
